Hey, just so you know, these numbers are from paper PMC11784839.

Could you please report measured raw data 2 for the items listed next?
- tgt: tau (Homo sapiens)
- test.name: MCE Phenols Library screening, tau biosensor cell seeding assay (AvZ)
- Type: cell-based
- details: puncta, replicate 2
Keep the answer to the number alone.

Query string: Could you share which raw data 2 value was measured for O=C(/C=C/c1ccc(O)cc1)c1c(O)cc(O)cc1O [Naringenin chalcone] ?
Result string: 8451.87

Query string: I would be grateful if you could share the reported raw data 2 for CC(C)=CCc1c2ccoc2c(O)c2oc(=O)ccc12 [Alloimperatorin] .
Result string: 7695.05

Query string: Name the recorded raw data 2 for O=c1oc2cc(O)ccc2c2cc(O)c(O)cc12 [Urolithin C] .
Result string: 9394.79

Query string: Name the reported raw data 2 value associated with the compound Cc1cc(O)c2c(c1)C(=O)c1cc(O)cc(O[C@@H]3O[C@H](CO)[C@@H](O)[C@H](O)[C@H]3O)c1C2=O [Emodin-8-glucoside]
Result string: 8851.57

====

- tgt: tau (Homo sapiens, UniProt P10636)
- Sequence (P10636 623-695 limits assumed): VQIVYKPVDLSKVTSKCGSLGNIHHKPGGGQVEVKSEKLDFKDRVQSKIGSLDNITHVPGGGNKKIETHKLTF
- test.name: MCE Phenols Library screening, tau biosensor cell seeding assay (AvZ)
- Type: cell-based
- details: 10 μM phenol in cell cultures, AD brain homogenate preincubated 16 hours, two biological replicates; positive = catalyzes seeding, negative = inhibits
Field: AvZ (average z score of seeding, SDs from the mean level of seeding). Provide a value for each of the compounds that follow.
// no unit string in output, number only

Query string: I would be grateful if you could share the reported AvZ (average z score of seeding, SDs from the mean level of seeding) for Cc1ccc(O)c(O)c1 .
Result string: -1.257

Query string: If you can, please state the reported AvZ (average z score of seeding, SDs from the mean level of seeding) value of N[C@@H](Cc1ccc(O)c([N+](=O)[O-])c1)C(=O)O .
Result string: 1.177

Query string: Returns the measured AvZ (average z score of seeding, SDs from the mean level of seeding) for the input compound. Input: C=CCc1ccc(O)c(O)c1
Result string: -0.761

Query string: Quick one: AvZ (average z score of seeding, SDs from the mean level of seeding) for COc1cc(C(=O)OCCCCNC(=N)N)cc(OC)c1O ?
Result string: 1.35

Query string: Record request: AvZ (average z score of seeding, SDs from the mean level of seeding) value, item COc1cc(CC(=O)C(=O)O)ccc1O
Result string: -0.352

Query string: Give the measured AvZ (average z score of seeding, SDs from the mean level of seeding) of CCCOC(=O)c1cc(O)c(O)c(O)c1 [Propyl gallate] .
Result string: -0.849

Query string: Reported AvZ (average z score of seeding, SDs from the mean level of seeding), compound Oc1cc2cc[nH]c2cc1O [5,6-Dihydroxyindole] : ____
Result string: -0.59

Query string: AvZ (average z score of seeding, SDs from the mean level of seeding) lookup needed for COc1ccc(C(C)=O)c(O)c1O [2,3-Dihydroxy-4-methoxyacetophenone] , thanks.
Result string: 0.13

Query string: Bench note: what AvZ (average z score of seeding, SDs from the mean level of seeding) did O=C(O)CNC(=O)c1cccc(O)c1 [3-Hydroxyhippuric acid] show?
Result string: 0.023

Query string: Could you share which AvZ (average z score of seeding, SDs from the mean level of seeding) value was measured for COc1cc(CNC(=O)CCCCCCCC(C)C)ccc1O [Homodihydrocapsaicin I] ?
Result string: -0.169
